Listing of entries alongside the reported GI50.
# System: OVCAR-3
# experiment: NCI tumour cell line growth inhibition, 48 h
Active and inactive are the calls of the source. Rule as the data show it: active = GI50 up to about 1.1 µM and inactive = higher.

molecule	GI50
CC1=C(c2cc(C(=O)Nc3ccc(Cl)cc3)nc(S)n2)Sc2ccccc2N1	> 100 µM (inactive)
O=C1C(=O)C(CCCO)(CCCO)CCCCCCCCC1(CCCO)CCCO	32.2 µM (inactive)
Cc1ccc(S(=O)(=O)NNC(=O)Nc2ccc([N+](=O)[O-])cc2)cc1	19.6 µM (inactive)
Cc1cc(=O)n2c(cc3cccccc32)n1	> 100 µM (inactive)
C1=Nc2ccccc2Cn2nncc21	> 100 µM (inactive)
CN(O)C(=O)c1ccccc1	> 100 µM (inactive)
COc1cc(O)c2c(=O)c3cccc(C)c3[nH]c2c1	9.31 µM (inactive)
CC(Oc1ccc2c(-c3ccccc3)cc(=O)oc2c1)C(=O)O (stereo unspecified)	> 100 µM (inactive)
COc1ccc([C@@H]2C[C@@H]3C(=O)OC(=O)[C@@H]3c3c2c2ccccc2n3C)cc1	> 100 µM (inactive)
CN(C)CCCN1c2ccccc2Sc2cnccc21	34 µM (inactive)
CC1(C)OC2C(CO)OC(n3ccc(N)nc3=O)C2O1 (stereo unspecified)	> 100 µM (inactive)
COc1ccc(-c2cc(-c3ccc(Nc4ccnc5cc(C(F)(F)F)ccc45)cc3)[nH]c(=O)c2C#N)cc1	> 100 µM (inactive)
Cc1cc(N(CCC#N)CCC#N)ccc1/C=C1/N=C(c2ccccc2)N(N)C1=O	> 100 µM (inactive)
CC1=NN(c2ccccc2)C(=O)C1/N=N/c1ccc(S(N)(=O)=O)cc1 (stereo unspecified)	> 100 µM (inactive)
CCOP(=O)(OCC)/C(C#N)=C/c1ccc(-c2cc(C(F)(F)F)cc(C(F)(F)F)c2)o1	8.02 µM (inactive)
CCOP(=O)(OCC)C(NC(=O)OCC(Cl)(Cl)Cl)n1nnc(C(=O)OC)c1C(=O)OC (stereo unspecified)	> 100 µM (inactive)
O=C(c1cccs1)N1CCN(C(=O)c2cccs2)C1=S	2.94 µM (inactive)
CO/N=C\c1cc(O)c(O)c(/C=N/OC)c1	4.82 µM (inactive)
CCOC(=O)[C@@]1(C(C)=O)CC(C)=C(C)C[S@@+]1[O-]	> 100 µM (inactive)
c1cc(C[S+]2CCCC2)sc1C[S+]1CCCC1	> 100 µM (inactive)
C=CC1(NS(=O)(=O)c2ccc(C)cc2)CCC(C(C)(C)C)CC1 (stereo unspecified)	21.6 µM (inactive)

###

# Tested on: SK-MEL-28
# experiment: NCI tumour cell line growth inhibition, 48 h
Activity calls are given as the source filed them. Rule as the data show it: active = GI50 up to about 1.1 µM and inactive = higher.
Labels: true = active, false = inactive

compound	assayed.target	assigned.class
CCOC(=O)/C(=C\NC[C@@H](C)O)c1nc2ccccc2[nH]1	SK-MEL-28	false
Cc1ccc(CC2(OCCN(C)C)CCC(C(C)(C)C)CC2)cc1 (stereo not given)	SK-MEL-28	false
N#C/C(=C\c1ccc(CP(=O)(O)O)cc1)C(N)=O	SK-MEL-28	false
Cc1cc(/N=C/c2ccc(C#N)cc2)n(-c2ccccc2)n1	SK-MEL-28	false
O=C(O)Cc1cc(=O)[nH]c2c1/C(=N/O)CCC2	SK-MEL-28	false
O=C1NC(N2CCCCC2)=N/C1=C\c1ccco1	SK-MEL-28	false
CSc1ccc(/C=C2\N=C(c3ccccc3)N(/N=C3\C(=O)Nc4ccccc43)C2=O)cc1	SK-MEL-28	false
CC(/C=C/C=C/C=C/C=C/C=C/C(=O)C1=C(O)C(CCC(=O)O)N(C)C1=O)=C\C(C)C(OC1CC(O)C(O)C(C)O1)C(C)C (stereo not given)	SK-MEL-28	false
Nc1nc2c(ncn2Cc2ccccc2CO)c(=O)[nH]1	SK-MEL-28	false
Cc1[nH]c2c(C)ccc(C)c2c1CC(=O)O	SK-MEL-28	false
COc1cc(O)c2c(=O)c3cccc(C)c3[nH]c2c1	SK-MEL-28	false
CCCCCC1=C/C(=C\c2[nH]c(-c3ccc[nH]3)cc2OC)N=C1C	SK-MEL-28	true
Cc1cc2nc3c(=O)n(C)c(=O)nc-3n(-c3ccc(Cl)cc3)c2cc1C	SK-MEL-28	false
NNC(=O)c1ccc(-n2nnc(C(=O)NN)c2C(=O)NN)cc1	SK-MEL-28	false
CCOC(=O)/C(C(=O)c1ccc[nH]1)=C1/CCCN1C	SK-MEL-28	false
CCC(=O)NCCc1c2c3c(ccnc3c3ncsc13)-c1ccccc1N2	SK-MEL-28	false
CCOP(=O)(OCC)/C(C#N)=C/c1ccc(-c2cc(C(F)(F)F)cc(C(F)(F)F)c2)o1	SK-MEL-28	false
COC(=O)C(C(=O)OC)C1CCCC(=O)C1 (stereo not given)	SK-MEL-28	false
CCCCCCCCCCCCCCCCNc1ccn(C2CC(OP(=O)(O)OCC3OC(n4cc(CC)c(=O)[nH]c4=O)CC3O)C(CO)O2)c(=O)n1 (stereo not given)	SK-MEL-28	false
CC[C@@]1(O)C(=O)OCc2c1cc1n(c2=O)Cc2c-1nc1ccccc1c2/C=N\NC(=O)C(N)CO (stereo not given in full)	SK-MEL-28	false
O/N=N/c1ccc([SH2]c2ccc3ccccc3c2)cn1	SK-MEL-28	false
Clc1ccc(COC(Cn2ccnc2)c2ccc(Cl)cc2Cl)c(Cl)c1 (stereo not given)	SK-MEL-28	false
CC(C)c1cccc(=O)c(O)c1	SK-MEL-28	false
O=[N+]([O-])c1cc2c([N+](=O)[O-])cccc2o1	SK-MEL-28	false
NC(=O)CC(N/C=C1/N=C(c2ccccc2)OC1=O)C(=O)O (stereo not given)	SK-MEL-28	false

###

# Test system: SR
# experiment: NCI tumour cell line growth inhibition, 48 h
Activity calls are given as the source filed them. Cut-off read from the data, not from the text of the source: active = GI50 up to about 1.1 µM and inactive = higher.
GI50: recorded values

molecule	GI50
CC(=O)NCCC1CNc2ccccc21 (stereo not drawn)	> 100 µM (inactive)
CN(O)C(=O)c1ccccc1	> 100 µM (inactive)
CN(C)c1ccc(/C=N/N=C2\C(=O)Nc3c(Cl)cc(Cl)cc32)cc1	6.46 µM (inactive)
c1ccc(C(NC2CCCCC2NCCNC2CCCCC2NC(c2ccccc2)(c2ccccc2)c2ccccc2)(c2ccccc2)c2ccccc2)cc1 (stereo not drawn)	81.7 µM (inactive)
NC(CCCNc1cccc(O)c1)C(=O)O (stereo not drawn)	> 100 µM (inactive)
Cc1cc(C)c(C2[C@H]3C(=O)N(c4ccc(Cc5ccc(N6C(=O)[C@@H]7ON(c8ccccc8)C(c8c(C)cc(C)cc8C)[C@@H]7C6=O)cc5)cc4)C(=O)[C@H]3ON2c2ccccc2)c(C)c1 (stereo partly drawn)	> 100 µM (inactive)
Cc1cc(C)nc(SC(C)C(=O)N/N=C/c2ccc(OCc3ccccc3)cc2)n1 (stereo not drawn)	7.89 µM (inactive)
COc1ccc(-c2cc(-c3ccc(Nc4ccnc5cc(C(F)(F)F)ccc45)cc3)[nH]c(=O)c2C#N)cc1	9.51 µM (inactive)

###

# System: NCI-H460
# experiment: NCI tumour cell line growth inhibition, 48 h
Calls of active or inactive are those of the source. Rule as the data show it: active = GI50 up to about 1.1 µM and inactive = higher.

compound	GI50
NS(=O)(=O)c1ccc(NC(=O)Nc2cccc3ccccc23)cc1	40.8 µM (inactive)
O=C(NCc1cccnc1)NCc1cccnc1	> 100 µM (inactive)
CCOC(=O)c1sc(Nc2cc(Cl)ccc2Cl)nc1C	> 100 µM (inactive)
Cc1ccc2c(ccc3[nH]cc(CNc4ccc(NS(C)(=O)=O)cc4)c32)n1	18.9 µM (inactive)
O=C(Cn1ccnc1[N+](=O)[O-])NCCO [ETANIDAZOLE]	27.5 µM (inactive)
O=C(Oc1ccc(OC(Oc2ccccc2)c2ccccc2)cc1)c1ccccc1 (configuration not stated)	> 63.2 µM (inactive)
CN(C)c1ccc(C(C#N)NNC(=O)Cc2ccccc2)cc1 (configuration not stated)	> 100 µM (inactive)
COc1cccc2c1C(=O)c1c(O)c3c(c(O)c1C2=O)C[C@@](O)(C(C)=O)C[C@@H]3OC1CC([N+]([O-])(Cc2ccccc2)Cc2ccccc2)C(O)C(C)O1 (some centres not stated)	0.71 µM (active)
CC(=O)O[C@H]1CCC(C)=CCC[C@@]2(C)C(CC[C@@H]2[C@@H](C)/C=C/C(C)C)c2ccc(cc2C(=O)O)C1 (some centres not stated)	3.12 µM (inactive)
CCN(CC)CCCNC(=O)C1COc2cc(-c3cc(=O)c4ccccc4o3)ccc2O1 (configuration not stated)	> 100 µM (inactive)
COc1cccc2c3cccc(OC)c3c3[nH]cnc3c12	1.72 µM (inactive)
COC(=O)[C@H](Cc1c[nH]c2ccccc12)NC(=O)c1ccc(CNC(=O)/C(C)=C/c2ccccc2)cc1	27.9 µM (inactive)

###

# System: HCT-116
# experiment: NCI tumour cell line growth inhibition, 48 h
Activity calls are given as the source filed them. Rule as the data show it: active = GI50 up to about 1.1 µM and inactive = higher.
Recorded GI50 for the following compounds

compound	GI50
CC(C)(C)OC(=O)NC1CCCC1C(=O)C1=CCCC1 (centres undefined)	97.3 µM (inactive)
CC(=O)c1c(SCCN2CCCCCC2)n(-c2ccccc2)c(=S)n(-c2ccccc2)c1=O	6.81 µM (inactive)
CC(=O)OCc1cc(=O)n(C)c2c3c4c(cc12)c(C)cc(=O)n4CO3	0.367 µM (active)
N#CC1(C#N)NC(c2ccccc2)C(C#N)(C#N)NC1c1ccccc1 (centres undefined)	> 100 µM (inactive)
